Answer each item with its documented inhibition at 200 µM.
# System: full length TCPTP (Homo sapiens, UniProt P17706)
# Construct: except full length TCPTP was used as the enzyme
# Sequence (P17706 whole entry, species assumed): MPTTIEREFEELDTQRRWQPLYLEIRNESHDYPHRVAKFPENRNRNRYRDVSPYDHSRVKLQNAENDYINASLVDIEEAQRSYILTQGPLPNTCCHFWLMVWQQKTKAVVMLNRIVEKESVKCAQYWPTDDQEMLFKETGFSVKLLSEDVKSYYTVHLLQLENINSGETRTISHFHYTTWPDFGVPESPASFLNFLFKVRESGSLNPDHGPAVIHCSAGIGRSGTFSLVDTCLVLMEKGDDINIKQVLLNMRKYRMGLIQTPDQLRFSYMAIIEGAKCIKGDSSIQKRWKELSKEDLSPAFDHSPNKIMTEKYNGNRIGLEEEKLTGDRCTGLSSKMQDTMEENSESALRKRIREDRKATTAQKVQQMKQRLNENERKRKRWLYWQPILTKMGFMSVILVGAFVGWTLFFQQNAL
# Protocol details: Inhibition of TCPTP (pNPP hydrolysis, same manner as PTP1B assay)
# Type: biochemical
# Condition parameters: 200 μM inhibitor; pNPP substrate; read-out: TCPTP % Inhib. at (200 μM)
Write it as a number; the unit % goes unstated.

COC(=O)CC[C@@H](C)[C@H]1CCC2C3C(CC[C@@]21C)[C@@]1(C)CC[C@H](NCCNC(C)C)C[C@H]1C[C@H]3O (stereo partly drawn) has a reported inhibition at 200 µM of 19

COC(=O)CC[C@@H](C)[C@H]1CCC2C3C(CC[C@@]21C)[C@@]1(C)CC[C@H](NCCNC(C)C)C[C@@H]1C[C@H]3NC(C)=O (stereo partly drawn) has a reported inhibition at 200 µM of 4

COC(=O)CC[C@@H](C)[C@H]1CCC2C3C(CC[C@@]21C)[C@@]1(C)CC[C@@H](NCCNC(C)C)C[C@@H]1C[C@H]3SC (stereo partly drawn) has a reported inhibition at 200 µM of 4

---

Answer each item with its documented inhibition at 5 µM.
# System: full length tyrosine phosphatase PTP1B (Homo sapiens)
# Construct: purchased
# Sequence (P18031 whole entry): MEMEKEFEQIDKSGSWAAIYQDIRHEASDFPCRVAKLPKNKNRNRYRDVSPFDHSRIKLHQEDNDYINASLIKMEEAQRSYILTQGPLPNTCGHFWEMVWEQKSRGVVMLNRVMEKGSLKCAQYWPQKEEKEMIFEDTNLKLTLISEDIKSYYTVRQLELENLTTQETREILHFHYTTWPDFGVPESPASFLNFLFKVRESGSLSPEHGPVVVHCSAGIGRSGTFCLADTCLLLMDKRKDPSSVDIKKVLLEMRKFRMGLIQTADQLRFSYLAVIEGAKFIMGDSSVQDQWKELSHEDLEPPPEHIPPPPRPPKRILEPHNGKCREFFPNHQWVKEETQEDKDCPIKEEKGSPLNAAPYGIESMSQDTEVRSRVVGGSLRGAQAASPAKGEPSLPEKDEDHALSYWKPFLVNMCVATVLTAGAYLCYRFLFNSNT
# Protocol details: Inhibition of PTP1B (pNPP hydrolysis, absorbance at 405 nm)
# Type: biochemical
# Condition parameters: 5 μM aminosteroid analogue; pNPP substrate; read-out: PTP1B % Inhib. at (5 μM)
Returns: string containing the number followed by the unit.

COC(=O)CC[C@@H](C)[C@H]1CCC2C3C(CC[C@@]21C)[C@@]1(C)CCC(NCCNC(C)C)C[C@@H]1C[C@H]3S(C)(=O)=O (stereo partly drawn) has a reported inhibition at 5 µM of 46%

COC(=O)CC[C@@H](C)[C@H]1CCC2C3C(CC[C@@]21C)[C@@]1(C)CC[C@@H](NCCCCNCc2cccnc2)C[C@@H]1C[C@H]3O (stereo partly drawn) has a reported inhibition at 5 µM of 72%

CC(C)CCC[C@@H](C)[C@H]1CCC2C3C[C@@H](O)[C@H]4C[C@H](NCCCN)CC[C@]4(C)C3CC[C@@]21C (stereo partly drawn) has a reported inhibition at 5 µM of 43%

CC(C)CCC[C@@H](C)[C@H]1CCC2C3C[C@@H](O)[C@H]4C[C@H](NCCCNCCCCN)CC[C@]4(C)C3CC[C@@]21C (stereo partly drawn) has a reported inhibition at 5 µM of 60%

COC(=O)CC[C@@H](C)[C@H]1CCC2C3C(CC[C@@]21C)[C@@]1(C)CC[C@H](NCCNC(C)C)C[C@@H]1C[C@H]3S(C)(=O)=O (stereo partly drawn) has a reported inhibition at 5 µM of 48%

COC(=O)CC[C@@H](C)[C@H]1CCC2C3C(CC[C@@]21C)[C@@]1(C)CC[C@H](NCCNC(C)C)C[C@H]1C[C@H]3O (stereo partly drawn) has a reported inhibition at 5 µM of 103%

COC(=O)CC[C@@H](C)[C@H]1CCC2C3C[C@H](O)[C@@H]4C[C@H](NCCNC(C)C)CC[C@]4(C)C3CC[C@@]21C (stereo partly drawn) has a reported inhibition at 5 µM of 101%

COC(=O)CC[C@@H](C)[C@H]1CCC2C3CC[C@@H]4C[C@@H](NCCNC(C)C)CC[C@]4(C)C3CC[C@@]21C (stereo partly drawn) has a reported inhibition at 5 µM of 104%

COC(=O)CC[C@@H](C)[C@H]1CCC2C3C(CC[C@@]21C)[C@@]1(C)CCC(NCCNC(C)C)C[C@@H]1C[C@H]3O (stereo partly drawn) has a reported inhibition at 5 µM of 102%

COC(=O)CC[C@@H](C)[C@H]1CCC2C3CC[C@@H]4C[C@H](NCCNC(C)C)CC[C@]4(C)C3CC[C@@]21C (stereo partly drawn) has a reported inhibition at 5 µM of 103%

COC(=O)CC[C@@H](C)[C@H]1CCC2C3C(CC[C@@]21C)[C@@]1(C)CCC(NCCNC(C)C)C[C@@H]1C[C@H]3NC(=O)OC (stereo partly drawn) has a reported inhibition at 5 µM of 75%

CC(C)NCCNC1CC[C@]2(C)C3CC[C@@]4(C)C(CC[C@@H]4[C@H](C)CCC(=O)O)C3C[C@@H](O)[C@H]2C1 (stereo partly drawn) has a reported inhibition at 5 µM of 89%

CC(C)CCC[C@@H](C)[C@H]1CCC2C3C[C@@H](O)[C@H]4C[C@@H](NCCCN)CC[C@]4(C)C3CC[C@@]21C (stereo partly drawn) has a reported inhibition at 5 µM of 39%

COC(=O)CC[C@@H](C)[C@H]1CCC2C3C[C@@H](O)[C@H]4C[C@H](NCCNC(C)C)CC[C@]4(C)C3CC[C@@]21C (stereo partly drawn) has a reported inhibition at 5 µM of 96%

CC(C)[C@@H](CC[C@@H](C)[C@H]1CC[C@H]2[C@@H]3[C@H](O)C[C@H]4C[C@@H](NCCCNCCCCNCCCN)CC[C@]4(C)[C@H]3CC[C@]12C)OS(=O)(=O)O [MSI-1436, reference compound] has a reported inhibition at 5 µM of 54%

COC(=O)CC[C@@H](C)[C@H]1CCC2C3C(CC[C@@]21C)[C@@]1(C)CC[C@@H](NCCN2CCCCC2)C[C@H]1C[C@H]3O (stereo partly drawn) has a reported inhibition at 5 µM of 94%

COC(=O)CC[C@@H](C)[C@H]1CCC2C3C(CC[C@@]21C)[C@@]1(C)CC[C@H](NCCNC(C)C)C[C@@H]1C[C@H]3NC(C)=O (stereo partly drawn) has a reported inhibition at 5 µM of 53%

CCNC(=O)N(CCCN(C)C)C(=O)C(C)[C@H]1CCC2C3CC[C@H]4CC(NCCNC)CC[C@]4(C)C3CC[C@@]21C (stereo partly drawn) has a reported inhibition at 5 µM of 0%

COC(=O)CC[C@@H](C)[C@H]1CCC2C3C[C@H](O)[C@@H]4C[C@@H](NCCNC(C)C)CC[C@]4(C)C3CC[C@@]21C (stereo partly drawn) has a reported inhibition at 5 µM of 103%

COC(=O)CC[C@@H](C)[C@H]1CCC2C3C(CC[C@@]21C)[C@@]1(C)CC[C@@H](NCCNC(C)C)C[C@@H]1C[C@H]3SC (stereo partly drawn) has a reported inhibition at 5 µM of 64%

COC(=O)CC[C@@H](C)[C@H]1CCC2C3CC[C@@H]4C[C@@H](NCCNC(C)C)CC[C@]4(C)C3C[C@H](O)[C@@]21C (stereo partly drawn) has a reported inhibition at 5 µM of 104%

COC(=O)CC[C@@H](C)[C@H]1CCC2C3CC[C@@H]4C[C@H](NCc5ccccn5)CC[C@]4(C)C3C[C@H](O)[C@@]21C (stereo partly drawn) has a reported inhibition at 5 µM of 90%

CC(C)CCC[C@@H](C)[C@H]1CCC2C3C[C@@H](O)[C@H]4C[C@@H](NCCCNCCCCNCCCN)CC[C@]4(C)C3CC[C@@]21C (stereo partly drawn) has a reported inhibition at 5 µM of 56%

COC(=O)CC[C@@H](C)[C@H]1CCC2C3C(CC[C@@]21C)[C@@]1(C)CC[C@H](NCCCCNCc2cccnc2)C[C@@H]1C[C@H]3O (stereo partly drawn) has a reported inhibition at 5 µM of 93%
